Every entry's value here was drawn from paper PMC6836125.

experiment: Cytotoxicity test, alamarBlue assay; type: cell-based, murine; settings: mouse, 37 °C, mean ± SD, read-out: Macrophage J774A.1 CC50
READOUT KIND: CC50 at 24 h (µM)
Write it as a number; the unit µM goes unstated.

The compound CN[C@@H]1C[C@H]2O[C@@](C)([C@@H]1OC)n1c3ccccc3c3c4c(c5c6ccccc6n2c5c31)C(=O)NC4 [STS (1), staurosporine] showed CC50 at 24 h equal to 8.74

Note to self: CC50 at 24 h recorded for CNC1CC2OC(C)(C1OC)n1c3ccccc3c3c4c(c5c6ccccc6n2c5c31)C(=O)NC4=O (centres unmarked) [7OSTS (2), 7-oxostaurosporine] was 5.2

====

test system: A. griffini; assay: Anti-Acanthamoeba activity on trophozoites, alamarBlue colorimetric assay; format: cell-based; conditions: trophozoites, 96 h, 26 °C, mean ± SD, read-out: IC50 A. griffini
Provide the reported pIC50 of each item.
Lab note: report pIC50 as minus log10 of the concentration in molar units, number only.

Data point: O=C1NCc2c1c1c3ccccc3[nH]c1c1[nH]c3ccccc3c21 [K252c (6), K252c] ; pIC50 = 5.65

Entry "C[C@@H](c1ncncc1F)[C@](O)(Cn1cncn1)c1ccc(F)cc1F" , pIC50 reported as 7.00

pIC50 in this record for COC1C(=O)CC2OC1(C)n1c3ccccc3c3c4c(c5c6ccccc6n2c5c31)C(=O)NC4 (stereo not drawn) : 4.62

Record "O=C1NC(=O)c2c1c1c3ccccc3[nH]c1c1[nH]c3ccccc3c21" . Reported pIC50: 5.12

"COC1=C(C)O[C@@H]2C[C@@]1(OC)n1c3ccccc3c3c4c(c5c6ccccc6n2c5c31)C(=O)NC4" has a reported pIC50 of 4.84

Lookup result for "CO[C@H]1[C@H](O)[C@@H](O)[C@H](n2c3c(Cl)cccc3c3c4c(c5c6cccc(Cl)c6[nH]c5c32)C(=O)NC4=O)O[C@@H]1CO" ; measured pIC50: 5.30

====

assay: Cytotoxicity test, alamarBlue assay; type: cell-based, murine; conditions: mouse, J774A.1 macrophage cells, 37 °C, mean ± SD
Please respond with reported CC50 at 24 h for every item in the list.

Field CC50 at 24 h (entry COC1C(=O)CC2OC1(C)n1c3ccccc3c3c4c(c5c6ccccc6n2c5c31)C(=O)NC4 (stereo not shown) [4’D4’OSTS (3), 4′-demethylamino-4′-oxostaurosporine] ) reads > 40 µM

The molecule listed as COC1=C(C)O[C@@H]2C[C@@]1(OC)n1c3ccccc3c3c4c(c5c6ccccc6n2c5c31)C(=O)NC4 [ICZ B (4), streptocarbazole B] has a reported CC50 at 24 h of > 40 µM

The measured CC50 at 24 h associated with [H]/N=C(\N/C(=N/[H])NCCCCCCNC(=N)NC(=N)Nc1ccc(Cl)cc1)Nc1ccc(Cl)cc1 [Chlorhexidine, chlorhexidine] reads 7.4 µM

Lookup result for C[C@@H](c1ncncc1F)[C@](O)(Cn1cncn1)c1ccc(F)cc1F [Voriconazole, voriconazole] ; measured CC50 at 24 h: 7.56 µM
